Assay: Metabolic stability in human liver microsomes assessed as compound remaining after at 10 uM preincubated for 5 mins followed by NADPH addition measured after 30 mins by HPLC-MS/MS analysis
Type: ADME
Details: read-out: Stability
Hi! Just check whether remaining at 0.5 h, 10 µM is below 80%. Below gives 1, equal or above gives 0.

compound: CCOC(=O)c1c(C)n(Cc2ccccc2)c2ccc(OCCCN3CCCCC3)cc12
classification: 1

compound: CCOC(=O)c1c(C)n(Cc2ccccc2)c2ccc(OCC(F)CN3CCCCC3)cc12 (stereo not drawn)
classification: 1

compound: CCOC(=O)c1c(C)n(Cc2ccccc2OC)c2ccc(OCCCN3CCCCC3)cc12
classification: 1

compound: Cc1cc2cc(OCCCN3CCCCC3)ccc2n1Cc1ccccc1
classification: 0

compound: CCOC(=O)c1c(C)n(Cc2ccccc2)c2ccc(OCCCN)cc12
classification: 0

compound: CCOC(=O)c1c(C)n(Cc2ccccc2[N+](=O)[O-])c2ccc(OCCCN3CCCCC3)cc12
classification: 0

compound: CCOC(=O)c1c(C)n(Cc2ccccc2)c2ccc(OCCN3CCNCC3)cc12
classification: 1

====

Molecular target: Quinolone resistance protein NorA (Staphylococcus aureus) (UniProt P0A0J7)
Test: Inhibition of NorA efflux pump in Staphylococcus aureus 1199B assessed as reduction in EtBr efflux at 50 uM incubated for 20 mins measured for 5 mins by real-time fluorometric analysis
Think of 90% as a floor: if inhibition stands on it or above, it is label 1; beneath it, label 0.

compound: CCOC(=O)c1c(C)n(Cc2ccccc2)c2ccc(OCCCN3CCC(F)(F)CC3)cc12
system-name: Quinolone resistance protein NorA (Staphylococcus aureus) (UniProt P0A0J7)
classification: label 0
//
compound: CCOC(=O)c1c(C)n(Cc2ccccc2)c2ccc(OCCCCN)cc12
system-name: Quinolone resistance protein NorA (Staphylococcus aureus) (UniProt P0A0J7)
classification: label 1
//
compound: CCOC(=O)c1c(C)n(CCc2ccccc2)c2ccc(OCCCN3CCCCC3)cc12
system-name: Quinolone resistance protein NorA (Staphylococcus aureus) (UniProt P0A0J7)
classification: label 1
//
compound: CCOC(=O)c1c(C)n(Cc2ccccc2)c2ccc(OCC(O)CN3CCCCCC3)cc12 (stereo not given)
system-name: Quinolone resistance protein NorA (Staphylococcus aureus) (UniProt P0A0J7)
classification: label 1
//
compound: CCOC(=O)c1c(C)n(Cc2ccccc2)c2ccc(OCCCN3CCN(C)CC3)cc12
system-name: Quinolone resistance protein NorA (Staphylococcus aureus) (UniProt P0A0J7)
classification: label 1

====

Molecular target: Quinolone resistance protein NorA (Staphylococcus aureus)
Test: Inhibition of NorA efflux pump in Staphylococcus aureus 1199B assessed as reduction in EtBr efflux at 50 uM incubated for 20 mins measured for 5 mins by real-time fluorometric analysis
Could you label it yes if measured inhibition is 60% or higher, and no otherwise?

compound: Cc1c(C(=O)O)c2cc(OCCCN3CCCCC3)ccc2n1Cc1ccccc1
classification: no
--
compound: CCOC(=O)c1c(C)n(Cc2ccccc2)c2ccc(OCC(O)CN3CCCCC3)cc12 (stereo unspecified)
classification: yes
--
compound: CCOC(=O)c1c(C)n(Cc2ccccc2)c2ccc(OCCN)cc12
classification: yes
--
compound: CCOC(=O)c1c(C)n(Cc2ccccc2)c2ccc(OCC(CF)N3CCCCC3)cc12 (stereo unspecified)
classification: no
--
compound: CCOC(=O)c1c(C)n(Cc2ccccc2)c2ccc(OCCN3CCCCC3)cc12
classification: yes
--
compound: CCOC(=O)c1c(C)n(Cc2ccccc2)c2ccc(OCCN3CCNCC3)cc12
classification: yes
--
compound: CCOC(=O)c1c(C)n(Cc2ccccc2)c2ccc(OCCCCN3CCNCC3)cc12
classification: yes
--
compound: CCOC(=O)c1c(C)n(Cc2cccc(OC)c2)c2ccc(OCCCN3CCCCC3)cc12
classification: yes
--
compound: CCOC(=O)c1c(C)n(Cc2ccccc2)c2ccc([N+](=O)[O-])cc12
classification: no
--
compound: CCOC(=O)c1c(C)n(Cc2ccc([N+](=O)[O-])cc2)c2ccc(OCCCN3CCCCC3)cc12
classification: yes
--
compound: CCOC(=O)c1c(C)n(Cc2ccccc2)c2ccc(OCC(F)CN3CCCCC3)cc12 (stereo unspecified)
classification: yes
--
compound: CCOC(=O)c1c(C)n(Cc2ccccc2)c2ccc(C(F)(F)F)cc12
classification: no
--
compound: CCOC(=O)c1c(C)n(Cc2ccc(OC)cc2)c2ccc(OCCCN3CCCCC3)cc12
classification: yes
--
compound: CCOC(=O)c1c(C)n(Cc2ccc(C(F)(F)F)cc2)c2ccc(OCCCN3CCCCC3)cc12
classification: yes
--
compound: CCOC(=O)c1c(C)n(Cc2ccccc2)c2ccc(OCCc3ccccc3)cc12
classification: no

====

Biological target: Quinolone resistance protein NorA (Staphylococcus aureus)
Assay: Inhibition of NorA efflux pump in Staphylococcus aureus 1199B assessed as reduction in EtBr efflux incubated for 20 mins measured for 5 mins by real-time fluorometric analysis
pIC50: −log10 of the molar value.
Please note: fulfilled applies when pIC50 is 5 or greater, and not fulfilled applies otherwise.

molecule: CCOC(=O)c1c(C)n(Cc2ccccc2F)c2ccc(OCCCN3CCCCC3)cc12
classification: fulfilled
--
molecule: CCOC(=O)c1c(C)n(Cc2ccccc2)c2ccc(OCCCN3CCCCC3)cc12
classification: fulfilled
--
molecule: CCOC(=O)c1c(C)n(Cc2ccccc2)c2ccc(OCCN(C)C)cc12
classification: not fulfilled
--
molecule: CCOC(=O)c1c(C)n(Cc2ccccc2)c2ccc(OCC(O)CN3CCOCC3)cc12 (configuration not stated)
classification: not fulfilled

====

Assay: Solubility of the compound in D2O solution at 25 degC by 1H NMR analysis
Format: physicochemical
The entries below are paired with their reported solubility.

compound: CCOC(=O)c1c(C)n(Cc2ccccc2)c2ccc(OCCN3CCNCC3)cc12
solubility [µM]: 190
--
compound: CCOC(=O)c1c(C)n(Cc2ccccc2OC)c2ccc(OCCCN3CCCCC3)cc12
solubility [µM]: 25
--
compound: Cc1cc2cc(OCCCN3CCCCC3)ccc2n1Cc1ccccc1
solubility [µM]: 70
--
compound: CCOC(=O)c1c(C)n(Cc2ccccc2)c2ccc(OCC(F)CN3CCCCC3)cc12 (stereo not given)
solubility [µM]: 20
--
compound: CCOC(=O)c1c(C)n(Cc2ccccc2)c2ccc(OCCCN3CCNCC3)cc12
solubility [µM]: 20

====

Test system: Staphylococcus aureus
Test: Antimicrobial activity against Staphylococcus aureus 1199B by microdilution method
Assay type: functional

compound: Cc1cc2cc(OCCCN3CCCCC3)ccc2n1Cc1ccccc1
MIC: 0.63 µg/mL
--
compound: CCOC(=O)c1c(C)n(Cc2ccccc2)c2ccc(OCCCN3CCN(C)CC3)cc12
MIC: > 100 µg/mL
--
compound: CCOC(=O)c1c(C)n(Cc2ccccc2)c2ccc(OCCN(C)C)cc12
MIC: > 100 µg/mL
--
compound: CCOC(=O)c1c(C)n(Cc2ccccc2)c2ccc(OCCCCN3CCNCC3)cc12
MIC: > 100 µg/mL
--
compound: CCOC(=O)c1c(C)n(Cc2ccccc2)c2ccc(OCCN3CCCCC3)cc12
MIC: > 100 µg/mL
--
compound: CCOC(=O)c1c(C)n(Cc2cccc(C(F)(F)F)c2)c2ccc(OCCCN3CCCCC3)cc12
MIC: > 100 µg/mL
--
compound: CCOC(=O)c1c(C)n(Cc2ccccc2)c2ccc(OCCCN3CCCCCC3)cc12
MIC: > 100 µg/mL
--
compound: CCOC(=O)c1c(C)n(Cc2ccccc2)c2ccc(OCCN3CCOCC3)cc12
MIC: > 100 µg/mL
--
compound: CCOC(=O)c1c(C)n(Cc2ccccc2[N+](=O)[O-])c2ccc(OCCCN3CCCCC3)cc12
MIC: > 100 µg/mL
--
compound: CCOC(=O)c1c(C)n(Cc2ccccc2OC)c2ccc(OCCCN3CCCCC3)cc12
MIC: > 100 µg/mL
--
compound: CCOC(=O)c1c(C)n(Cc2cccc([N+](=O)[O-])c2)c2ccc(OCCCN3CCCCC3)cc12
MIC: > 100 µg/mL
--
compound: CCOC(=O)c1c(C)n(Cc2ccccc2)c2ccc(OCC(O)CN3CCCCCC3)cc12 (configuration not stated)
MIC: 100 µg/mL

====

Biological target: Quinolone resistance protein NorA (Staphylococcus aureus, UniProt P0A0J7)
Assay: Inhibition of NorA efflux pump in Staphylococcus aureus 1199B assessed as reduction in EtBr efflux incubated for 20 mins measured for 5 mins by real-time fluorometric analysis
Reported IC50 by item:
measurement-name: IC50 (µM)

molecule: CCOC(=O)c1c(C)n(Cc2cccc(OC)c2)c2ccc(OCCCN3CCCCC3)cc12
recorded-value: 7.3
--
molecule: CCOC(=O)c1c(C)n(Cc2ccccc2)c2ccc(OCC(N)CO)cc12 (stereo not drawn)
recorded-value: 10.4
--
molecule: CCOC(=O)c1c(C)n(Cc2ccccc2)c2ccc(OCCCN3CCN(C)CC3)cc12
recorded-value: 11.9
